# normalized growth per entry
experimental.protocol: chemical genetic growth profiling, strain panel (AID 1159580);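 further: tested at 20 µM; growth read once vehicle control cultures reached saturation at 30 °C; 1 = growth at the plate median or of vehicle wells; lower values mean less growth of the strain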
test.conditions: S. cerevisiae deletion strains, growth OD, locus YPR119W, strain clb2, active compounds read low
The campaign covered roughly 5,500 compounds. About 2,000 (36%) were called active. Roughly 18% stayed inconclusive and do not appear here. The list shows a part of the results.
The answer should be written as a number, with no unit following it.

compound | observed.value
O=C(O)c1cc2ccccc2c(Cc2c(O)c(C(=O)O)cc3ccccc23)c1O | 0.988

Bench note: what normalized growth did CCN(CCO)CCCC(C)Nc1ccnc2cc(Cl)ccc12 (stereo not drawn) show?
1.01

Bench note: what normalized growth did CCN(CC)CCCC(C)Nc1c2ccc(Cl)cc2nc2ccc(OC)cc12 (stereo not drawn) show?
0.946

Bench note: what normalized growth did `CC(=O)OCC[N+](C)(C)C` show?
1.01

###

experimental.protocol: chemical genetic growth profiling, strain panel (AID 1159580);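 further: tested at 20 µM; growth read once vehicle control cultures reached saturation at 30 °C; 1 = growth at the plate median or of vehicle wells; lower values mean less growth of the strain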
test.conditions: S. cerevisiae deletion strains, growth OD, locus YLR418C, strain cdc73, active compounds read low
Out of some 5,500 compounds screened, about 2,000 (36%) were called active. Not shown: some 18% with an inconclusive outcome. Some of the results follow.
# normalized growth per entry
The answer should be written as a number, with no unit following it.

compound | normalized growth
ClC1=C(Cl)C2(Cl)C3C4C=CC(C4)C3C1(Cl)C2(Cl)Cl (configuration not stated) | 0.894
O=C(O)c1cc2ccccc2[nH]1 | 1.01
CCCCNc1cc(C(=O)O)cc(S(N)(=O)=O)c1Oc1ccccc1 | 0.959

Bench note: what normalized growth did `C[N+](C)(C)CCOC(N)=O` show?
0.983

Bench note: what normalized growth did CC(C)CC(NC(=O)C(Cc1ccccc1)NC(=O)CNC(=O)CNC(=O)C(N)Cc1ccc(O)cc1)C(=O)O (configuration not stated) show?
1

Bench note: what normalized growth did `O=C(O)c1cc2ccccc2c(Cc2c(O)c(C(=O)O)cc3ccccc23)c1O` show?
0.93

Bench note: what normalized growth did `CCOC(=O)CCC(=O)O[C@H]1[C@H](O[C@@H]2[C@@H](C)[C@H](O[C@H]3C[C@@](C)(OC)[C@@H](O)[C@H](C)O3)[C@@H](C)C(=O)O[C@H](CC)[C@@](C)(O)[C@H](O)[C@@H](C)C(=O)[C@H](C)C[C@@]2(C)O)O[C@H](C)C[C@@H]1N(C)C` show?
1.01

Bench note: what normalized growth did ClC1=C(Cl)C2(Cl)C3C(Cl)C=CC3C1(Cl)C2(Cl)Cl (configuration not stated) show?
0.977

Bench note: what normalized growth did Cc1cccc(C)c1OCC(C)N (configuration not stated) show?
1.03

Bench note: what normalized growth did CCC(C)C(OC(C)=O)C(=O)OC1C(O)C2C3(C)C=CC(=O)C(C)(C)C3CC(OC(=O)C(O)C(C)C)C2(C)C23OC2CC(c2ccoc2)C13C (configuration not stated) show?
1

Bench note: what normalized growth did `CC[C@H]1OC(=O)[C@H](C)[C@@H](O[C@H]2C[C@@](C)(OC)[C@@H](O)[C@H](C)O2)[C@H](C)[C@@H](O[C@@H]2O[C@H](C)C[C@H](N(C)C)[C@H]2O)[C@](C)(O)C[C@@H](C)CN(C)[C@H](C)[C@@H](O)[C@]1(C)O` show?
1.03

Bench note: what normalized growth did `CC(C)(O)[C@@H]1[C@H]2OC(=O)[C@@H]1[C@]1(O)C[C@H]3O[C@]34C(=O)O[C@H]2[C@]14C` show?
0.997
